# EXPERIMENTAL_SYSTEM: human GR (Homo sapiens)
# ASSAY: Transrepression Assay (GITAR), TNFα-β-lactamase reporter in U937 cells
# Type: cell-based
# Design: U937 cells contain an endogenous glucocorticoid receptor (GR); endogenous in cells; host or cells: U937 cells stably transfected with the TNF-alpha promoter/beta-lactamase reporter
# TEST_CONDITIONS: GITAR Emax minus GRAMMER Emax
RESULT_TYPE: GITAR > GRAMM % SEP (%)

See these solved cases before continuing.
COCCN(C[C@H]1CCC2=Cc3c(cnn3-c3ccc(F)cc3)C[C@@]21C)S(=O)(=O)c1c(C)noc1C 12.6
C[C@]12Cc3cnn(-c4ccc(F)cc4)c3C=C1CC[C@@H]2CN(CCc1ccccc1O)S(=O)(=O)c1ccccc1F 7.7
C[C@]12Cc3cnn(-c4ccc(F)cc4)c3C=C1CC[C@@H]2CN(CCc1ccccn1)S(=O)(=O)CC(F)(F)F 19.3
C[C@]12Cc3cnn(-c4ccc(F)cc4)c3C=C1CC[C@@H]2CN(CCc1ccccc1F)S(=O)(=O)c1ccccc1F 12.4
C[C@]12Cc3cnn(-c4ccc(F)cc4)c3C=C1CC[C@@H]2CN(CC#N)S(=O)(=O)c1ccc(F)cc1F 3.5

I = CC(=O)Nc1ccc(S(=O)(=O)N(CCO)C[C@H]2CCC3=Cc4c(cnn4-c4ccc(F)cc4)C[C@@]32C)cc1
II = COCCN(C[C@H]1CCC2=Cc3c(cnn3-c3ccc(F)cc3)C[C@@]21C)S(=O)(=O)CCN1C(=O)c2ccccc2C1=O
Pick one: I or II . Which has the bigger GITAR > GRAMM % SEP number? Use the label to indicate which entry you chose.
I
(I: 37.1%, II: 25.4%)

---

# EXPERIMENTAL_SYSTEM: human GR (Homo sapiens, UniProt P04150)
# Sequence (P04150 whole entry): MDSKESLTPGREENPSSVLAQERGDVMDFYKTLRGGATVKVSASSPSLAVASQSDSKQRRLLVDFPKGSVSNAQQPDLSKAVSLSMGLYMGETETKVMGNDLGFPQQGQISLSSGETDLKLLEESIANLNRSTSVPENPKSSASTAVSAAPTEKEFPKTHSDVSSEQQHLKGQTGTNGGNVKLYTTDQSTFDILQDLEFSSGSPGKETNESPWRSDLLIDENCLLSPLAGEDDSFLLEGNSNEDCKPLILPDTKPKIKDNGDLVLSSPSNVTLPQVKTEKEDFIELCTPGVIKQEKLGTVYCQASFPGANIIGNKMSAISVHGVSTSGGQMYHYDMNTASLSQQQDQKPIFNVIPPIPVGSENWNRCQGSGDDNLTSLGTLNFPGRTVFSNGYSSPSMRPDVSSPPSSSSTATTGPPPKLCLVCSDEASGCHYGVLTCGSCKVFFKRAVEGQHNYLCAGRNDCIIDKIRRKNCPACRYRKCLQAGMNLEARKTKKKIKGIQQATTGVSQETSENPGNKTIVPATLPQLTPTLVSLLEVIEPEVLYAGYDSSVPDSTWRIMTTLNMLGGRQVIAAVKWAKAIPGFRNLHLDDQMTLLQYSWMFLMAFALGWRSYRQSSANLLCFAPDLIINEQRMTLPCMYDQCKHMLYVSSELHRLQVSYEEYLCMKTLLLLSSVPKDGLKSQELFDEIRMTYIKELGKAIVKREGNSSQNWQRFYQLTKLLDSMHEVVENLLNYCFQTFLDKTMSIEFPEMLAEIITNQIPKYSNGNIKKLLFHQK
# ASSAY: Transrepression Assay (GITAR), TNFα-β-lactamase reporter in U937 cells
# Assay type: cell-based
# Parameters: U937 cells contain an endogenous glucocorticoid receptor (GR); endogenous in cells; host or cells: U937 cells stably transfected with the TNF-alpha promoter/beta-lactamase reporter
# TEST_CONDITIONS: U937 cells; inflection point; read-out: Transrepression U937 Cells GITAR IP
RESULT_TYPE: EC50 (nM)

MOLECULE	MEASUREMENT_UNITS	EC50
COCCN(C[C@H]1CCC2=Cc3c(cnn3-c3ccc(F)cc3)C[C@@]21C)S(=O)(=O)c1ccccc1F [Example 94]	nM	412
CC(C)(O)CN(C[C@H]1CCC2=Cc3c(cnn3-c3ccc(F)cc3)C[C@@]21C)S(=O)(=O)c1ccccc1F [Example 199]	nM	506
C[C@]12Cc3cnn(-c4ccc(F)cc4)c3C=C1CC[C@@H]2CN(CC#N)S(=O)(=O)c1ccc(F)c(F)c1 [Example 25]	nM	222
CCN(C[C@H]1CCC2=Cc3c(cnn3-c3ccc(F)cc3)C[C@@]21C)S(=O)(=O)c1c(C)noc1C [Example 178]	nM	276

1 = CC(C)CS(=O)(=O)N(CCc1ccccc1F)C[C@H]1CCC2=Cc3c(cnn3-c3ccc(F)cc3)C[C@@]21C [Example 103]
2 = C[C@H](O)CN(C[C@H]1CCC2=Cc3c(cnn3-c3ccc(F)cc3)C[C@@]21C)S(=O)(=O)CC(F)(F)F [Example 113]
3 = C[C@]12Cc3cnn(-c4ccc(F)cc4)c3C=C1CC[C@@H]2CN(CCO)S(=O)(=O)Cc1ccccc1C(N)=O [Example 198]
Form: Sort by [EC50] Order [ ascending ] # the answer lists labels in the order requested
2, 1, 3
(2: 59 nM, 1: 177 nM, 3: 1150 nM)
